Reference for the values: PubChem BioAssay AID2060883

Test system: 843782-103-R-J1-PDC complex spheroid viability
experimental.protocol: Anticancer human tumor 843782-103-R-J1-PDC patient-derived lung adenocarcinoma cell line growth inhibition [RAS]
condition.parameters: second compound 0.00949 µM; first compound 0.0316 µM; stronger effect = lower value
measurement.label: viability, T/C (%)
Write the answer as a number in %, unit excluded.

compound	measured.on	val
Cc1nc(N2CCC3(CC2)COC(C)C3N)c(CO)nc1Sc1ccnc(N)c1Cl (stereo unspecified) + CCn1c(-c2cccnc2C(C)OC)c2c3cc(ccc31)N1CCOC(CC(NC(=O)C(C(C)C)N(C)C(=O)C3(F)CCN(C(=O)C#CC(C)(C)N(C)C)CC3)C(=O)N3CCCC(N3)C(=O)OCC(C)(C)C2)C1	843782-103-R-J1-PDC complex spheroid viability	55.1
O=C(c1ccc(F)c(F)c1Nc1ccc(I)cc1F)N1CC(O)([C@@H]2CCCCN2)C1 + CCn1c(-c2cccnc2C(C)OC)c2c3cc(ccc31)N1CCOC(CC(NC(=O)C(C(C)C)N(C)C(=O)C3(F)CCN(C(=O)C#CC(C)(C)N(C)C)CC3)C(=O)N3CCCC(N3)C(=O)OCC(C)(C)C2)C1	843782-103-R-J1-PDC complex spheroid viability	47.1
Nc1ccn(C2OC(CO)C(O)C2(F)F)c(=O)n1 (stereo unspecified) + CCn1c(-c2cccnc2C(C)OC)c2c3cc(ccc31)N1CCOC(CC(NC(=O)C(C(C)C)N(C)C(=O)C3(F)CCN(C(=O)C#CC(C)(C)N(C)C)CC3)C(=O)N3CCCC(N3)C(=O)OCC(C)(C)C2)C1	843782-103-R-J1-PDC complex spheroid viability	18.9
CCC(CC)c1cc(NC2CCC(N)C2)n2nccc2n1 (stereo unspecified) + CCn1c(-c2cc(N3CCN(C)CC3)cnc2C(C)OC)c2c3cc(ccc31)-c1csc(n1)CC(NC(=O)C1CC1C)C(=O)N1CCCC(N1)C(=O)OCC(C)(C)C2	843782-103-R-J1-PDC complex spheroid viability	30.6
CC(C)NCC(C(=O)N1CCN(c2ncnc3c2C(C)CC3O)CC1)c1ccc(Cl)cc1 (stereo unspecified) + CCn1c(-c2cccnc2C(C)OC)c2c3cc(ccc31)N1CCOC(CC(NC(=O)C(C(C)C)N(C)C(=O)C3(F)CCN(C(=O)C#CC(C)(C)N(C)C)CC3)C(=O)N3CCCC(N3)C(=O)OCC(C)(C)C2)C1	843782-103-R-J1-PDC complex spheroid viability	68.2

Exercise: // fetch viability, T/C; item: NC1c2ccccc2OC12CCN(c1cnc3c(N4CCCc5ncccc54)n[nH]c3n1)CC2 (stereo unspecified) + CCn1c(-c2cc(N3CCN(C)CC3)cnc2C(C)OC)c2c3cc(ccc31)-c1csc(n1)CC(NC(=O)C1CC1C)C(=O)N1CCCC(N1)C(=O)OCC(C)(C)C2 ; system: 843782-103-R-J1-PDC complex spheroid viability
Solution: 24.2

Exercise: GET viability, T/C where system = 843782-103-R-J1-PDC complex spheroid viability and item = CC(Nc1ccc2c(c1)OCCn1cc(N3C(=O)OCC3C(F)F)nc1-2)C(N)=O (stereo unspecified) + CCn1c(-c2cccnc2C(C)OC)c2c3cc(ccc31)N1CCOC(CC(NC(=O)C(C(C)C)N(C)C(=O)C3(F)CCN(C(=O)C#CC(C)(C)N(C)C)CC3)C(=O)N3CCCC(N3)C(=O)OCC(C)(C)C2)C1
Solution: 53

----------
This section presents molecules with their documented viability, T/C values.
Test system: 843782-103-R-J1-PDC complex spheroid viability
experimental.protocol: Anticancer human tumor 843782-103-R-J1-PDC cell line growth inhibition [RAS];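 further: viability read after seven days of compound exposure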
condition.parameters: second compound 0.0949 µM; first compound 3.16 µM; stronger effect = lower value
From the text: RAS pathway inhibitors in Combinations in Complex Spheroids A high-throughput screen of multi-cell type tumor spheroids was designed to identify active combinations of RAS pathway inhibitors and targeted small molecules. Complex spheroids include a stromal component modeled by human endothelial cells (HUVEC) and fibroblasts modeled by human mesenchymal stem cells (MSCs). […] Compounds. […] If the clinical Cmax for an agent had not been determined, the highest concentration tested was 10 microM. […]
The reply should be a number in %, with the unit left off.

The following molecules have reported results that may help.
molecule	unit.tag	val
CCC(CC)c1cc(NC2CCC(N)C2)n2nccc2n1 (configuration not stated) + CCn1c(-c2cccnc2C(C)OC)c2c3cc(ccc31)N1CCOC(CC(NC(=O)C(C(C)C)N(C)C(=O)C3(F)CCN(C(=O)C#CC(C)(C)N(C)C)CC3)C(=O)N3CCCC(N3)C(=O)OCC(C)(C)C2)C1	%	1.32
CC(=O)OC12COC1CC(O)C1(C)C(=O)C(O)C3=C(C)C(OC(=O)C(O)C(NC(=O)OC(C)(C)C)c4ccccc4)CC(O)(C(OC(=O)c4ccccc4)C21)C3(C)C (configuration not stated) + CCn1c(-c2cccnc2C(C)OC)c2c3cc(ccc31)N1CCOC(CC(NC(=O)C(C(C)C)N(C)C(=O)C3(F)CCN(C(=O)C#CC(C)(C)N(C)C)CC3)C(=O)N3CCCC(N3)C(=O)OCC(C)(C)C2)C1	%	10.6
CC(Nc1ccc2c(c1)OCCn1cc(N3C(=O)OCC3C(F)F)nc1-2)C(N)=O (configuration not stated) + CCn1c(-c2cccnc2C(C)OC)c2c3cc(ccc31)N1CCOC(CC(NC(=O)C(C(C)C)N(C)C(=O)C3(F)CCN(C(=O)C#CC(C)(C)N(C)C)CC3)C(=O)N3CCCC(N3)C(=O)OCC(C)(C)C2)C1	%	13.9
CC(C)NCC(C(=O)N1CCN(c2ncnc3c2C(C)CC3O)CC1)c1ccc(Cl)cc1 (configuration not stated) + CCn1c(-c2cc(N3CCN(C)CC3)cnc2C(C)OC)c2c3cc(ccc31)-c1csc(n1)CC(NC(=O)C1CC1C)C(=O)N1CCCC(N1)C(=O)OCC(C)(C)C2	%	5.39
C[C@@H](NC(=O)c1ncnc(N)c1Cl)c1ncc(C(=O)Nc2cc(C(F)(F)F)c(Cl)cn2)s1 + CCn1c(-c2cccnc2C(C)OC)c2c3cc(ccc31)N1CCOC(CC(NC(=O)C(C(C)C)N(C)C(=O)C3(F)CCN(C(=O)C#CC(C)(C)N(C)C)CC3)C(=O)N3CCCC(N3)C(=O)OCC(C)(C)C2)C1	%	88.8

Exercise: # return recorded viability, T/C for input NC1c2ccccc2OC12CCN(c1cnc3c(N4CCCc5ncccc54)n[nH]c3n1)CC2 (configuration not stated) + CCn1c(-c2cccnc2C(C)OC)c2c3cc(ccc31)N1CCOC(CC(NC(=O)C(C(C)C)N(C)C(=O)C3(F)CCN(C(=O)C#CC(C)(C)N(C)C)CC3)C(=O)N3CCCC(N3)C(=O)OCC(C)(C)C2)C1
Solution: 15.4

Exercise: State its viability, T/C for this molecule: CC1(O)CCCC1n1c(=O)c(C(F)F)cc2cnc(NC3CCN(S(C)(=O)=O)CC3)nc21 (configuration not stated) + CCn1c(-c2cccnc2C(C)OC)c2c3cc(ccc31)N1CCOC(CC(NC(=O)C(C(C)C)N(C)C(=O)C3(F)CCN(C(=O)C#CC(C)(C)N(C)C)CC3)C(=O)N3CCCC(N3)C(=O)OCC(C)(C)C2)C1
Solution: 16.4

----------
System: 843782-103-R-J1-PDC complex spheroid viability
experimental.protocol: Anticancer human tumor 843782-103-R-J1-PDC cell line growth inhibition [RAS];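 further: viability read after seven days of compound exposure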
condition.parameters: curve of first compound; second compound 0.3 µM
Excerpt: RAS pathway inhibitors in Combinations in Complex Spheroids A high-throughput screen of multi-cell type tumor spheroids was designed to identify active combinations of RAS pathway inhibitors and targeted small molecules. Complex spheroids include a stromal component modeled by human endothelial cells (HUVEC) and fibroblasts modeled by human mesenchymal stem cells (MSCs). […] Compounds. […] If the clinical Cmax for an agent had not been determined, the highest concentration tested was 10 microM. […]
pIC50: −log10 of the molar value.
List of pIC50 values.

# annotated cases, reported pIC50 shown
compound	measured.on	pIC50
C[C@@H](NC(=O)c1ncnc(N)c1Cl)c1ncc(C(=O)Nc2cc(C(F)(F)F)c(Cl)cn2)s1 + CCn1c(-c2cccnc2C(C)OC)c2c3cc(ccc31)N1CCOC(CC(NC(=O)C(C(C)C)N(C)C(=O)C3(F)CCN(C(=O)C#CC(C)(C)N(C)C)CC3)C(=O)N3CCCC(N3)C(=O)OCC(C)(C)C2)C1	843782-103-R-J1-PDC complex spheroid viability	< 5.00
CC(Nc1ccc2c(c1)OCCn1cc(N3C(=O)OCC3C(F)F)nc1-2)C(N)=O (centres undefined) + CCn1c(-c2cc(N3CCN(C)CC3)cnc2C(C)OC)c2c3cc(ccc31)-c1csc(n1)CC(NC(=O)C1CC1C)C(=O)N1CCCC(N1)C(=O)OCC(C)(C)C2	843782-103-R-J1-PDC complex spheroid viability	> 7.50
O=C(c1ccc(F)c(F)c1Nc1ccc(I)cc1F)N1CC(O)([C@@H]2CCCCN2)C1 + CCn1c(-c2cc(N3CCN(C)CC3)cnc2C(C)OC)c2c3cc(ccc31)-c1csc(n1)CC(NC(=O)C1CC1C)C(=O)N1CCCC(N1)C(=O)OCC(C)(C)C2	843782-103-R-J1-PDC complex spheroid viability	> 8.50

// moving on: another record for pIC50
Exercise: Please give measured pIC50 of the following entry: C[C@@H](NC(=O)c1ncnc(N)c1Cl)c1ncc(C(=O)Nc2cc(C(F)(F)F)c(Cl)cn2)s1 + CCn1c(-c2cc(N3CCN(C)CC3)cnc2C(C)OC)c2c3cc(ccc31)-c1csc(n1)CC(NC(=O)C1CC1C)C(=O)N1CCCC(N1)C(=O)OCC(C)(C)C2
Solution: > 7.50
